Tested on: HeLa
Assay: Antiproliferative activity against human HeLa cells assessed as inhibition of cell viability incubated for 48 hrs by CCK8 assay
Type: functional, cell-based
pIC50: −log10 of the molar value.
Decide by pIC50: equal to or exceeding 5 means class 1, less means class 0.

Example results:
CCOC(=O)/C=C/N1c2nc(Cl)nc(Cl)c2N2C(c3ccc(Cl)cc3)OC(C(=O)OCC)(C(=O)OCC)C12 (racemic); class 0
CCOC(=O)/C=C/N1c2nc(Cl)nc(Cl)c2N2C(c3ccccc3Br)OC(C(=O)OCC)(C(=O)OCC)C12 (racemic); class 1
CCOC(=O)C1(C(=O)OCC)OC(c2ccccc2)N2c3c(Cl)nc(Cl)nc3N(/C=C/C(=O)OC(C)(C)C)C21 (racemic); class 0
CCOC(=O)/C=C/N1c2nc(Cl)nc(Cl)c2N2C(c3cc(OC)c(OC)c(OC)c3)OC(C(=O)OCC)(C(=O)OCC)C12 (racemic); class 0
CCOC(=O)/C=C/N1c2nc(Cl)nc(Cl)c2N2C(c3ccccc3)OC(CO)(CO)C12 (racemic); class 0

**Q:** Please check the record CCOC(=O)/C=C/N1c2nc(Cl)nc(Cl)c2N2C(c3ccc(F)cc3)OC(C(=O)OCC)(C(=O)OCC)C12 (racemic) and state if its pIC50 is at or above 5.
**A:** class 1

**Q:** Please check the record CCOC(=O)/C=C/N1c2nc(Cl)nc(Cl)c2N2C(c3ccc(C)cc3)OC(C(=O)OCC)(C(=O)OCC)C12 (racemic) and state if its pIC50 is at or above 5.
**A:** class 0

**Q:** Please check the record O=c1[nH]cc(F)c(=O)[nH]1 [FLUOROURACIL] and state if its pIC50 is at or above 5.
**A:** class 1

**Q:** Please check the record C=C(C(=O)OC)N1c2nc(Cl)nc(Cl)c2N2C(c3ccccc3)OC(C(=O)OCC)(C(=O)OCC)C12 (racemic) and state if its pIC50 is at or above 5.
**A:** class 1

**Q:** Please check the record CCOC(=O)/C=C/N1c2nc(Cl)nc(Cl)c2N2C(c3cccs3)OC(C(=O)OCC)(C(=O)OCC)C12 (racemic) and state if its pIC50 is at or above 5.
**A:** class 0

**Q:** Please check the record CCOC(=O)/C=C/N1c2nc(Cl)nc(Cl)c2N2C(c3ccccc3)OC(C(=O)OCC)C12 (racemic) and state if its pIC50 is at or above 5.
**A:** class 1

**Q:** Please check the record CCOC(=O)/C=C/N1c2nc(Cl)nc(Cl)c2N2C(c3ccc(-c4ccccn4)cc3)OC(C(=O)OCC)(C(=O)OCC)C12 (racemic) and state if its pIC50 is at or above 5.
**A:** class 0

**Q:** Please check the record CCOC(=O)/C=C/N1c2nc(Cl)nc(Cl)c2N2C(c3ccc(C)c(C)c3)OC(C(=O)OCC)(C(=O)OCC)C12 (racemic) and state if its pIC50 is at or above 5.
**A:** class 1

**Q:** Please check the record CCOC(=O)/C=C/N1c2nc(Cl)nc(Cl)c2N2C(c3ccccc3)OC(CO)C12 (racemic) and state if its pIC50 is at or above 5.
**A:** class 0

----------
Experiment: Acute toxicity in BALB/c mouse assessed as death rate at 350 mg/kg, ip measured for 14 days
Format: organism-based
Details: both, in vivo, time 14 day, read-out: Activity
Readout Kind: mortality at 336 h (%)
Numbers only here, please. The scale is %.

**Q:** // returns reported mortality at 336 h for input C=C(C(=O)OC)N1c2nc(Cl)nc(Cl)c2N2C(c3ccccc3F)OC(C(=O)OCC)(C(=O)OCC)C12 (racemic)
**A:** 20

----------
Below, each entry is listed with its recorded pIC50.
Tested on: HCT-116
Assay: Antiproliferative activity against human HCT-116 cells assessed as inhibition of cell viability incubated for 48 hrs by CCK8 assay
Assay type: functional, cell-based
Conditions: HCT-116, 48 h
By convention, pIC50 is the negative base-10 log of a molar concentration.

Previously resolved entries follow.
CCOC(=O)/C=C/N1c2nc(Cl)nc(Cl)c2N2C(c3cccc(OC)c3)OC(C(=O)OCC)(C(=O)OCC)C12 (racemic); 4.68
CCOC(=O)/C=C/N1c2nc(Cl)nc(Cl)c2N2C(c3ccccc3)OC(CO)(CO)C12 (racemic); 4.95

Let us move to another entry and its pIC50.
**Q:** Give HCT-116 pIC50 for CCOC(=O)/C=C/N1c2nc(Cl)nc(Cl)c2N2C(c3ccccc3I)OC(C(=O)OCC)(C(=O)OCC)C12 (racemic)
**A:** 5.43

----------
System: HCT-116
Assay: Antiproliferative activity against human HCT-116 cells assessed as inhibition of cell viability incubated for 48 hrs by CCK8 assay
Type: functional, cell-based
Conditions: HCT-116, 48 h
Readout Kind: IC50 (µM)
Numbers only here, please. The scale is µM.

Previously resolved entries follow.
CCOC(=O)/C=C/N1c2nc(Cl)nc(Cl)c2N2C(c3ccc(Br)cc3)OC(C(=O)OCC)(C(=O)OCC)C12 (racemic); 9.32
CCOC(=O)/C=C/N1c2nc(Cl)nc(Cl)c2N2C(c3cccc(F)c3)OC(C(=O)OCC)(C(=O)OCC)C12 (racemic); 5.1
C=C(C(=O)OC)N1c2nc(Cl)nc(Cl)c2N2C(c3ccccc3Br)OC(C(=O)OCC)(C(=O)OCC)C12 (racemic); 3.11

Let us move to another entry and its IC50.
**Q:** Give HCT-116 IC50 for CCOC(=O)/C=C/N1c2nc(Cl)nc(Cl)c2N2C(c3ccc(-c4ccccn4)cc3)OC(C(=O)OCC)(C(=O)OCC)C12 (racemic)
**A:** 21.7

----------
System: HeLa
Experiment: Antiproliferative activity against human HeLa cells assessed as inhibition of cell viability incubated for 48 hrs by CCK8 assay
Type: functional, cell-based
Readout Kind: IC50

CCOC(=O)/C=C/N1c2nc(Cl)nc(Cl)c2N2C(c3ccccc3)OC(COS(=O)(=O)c3ccc(C)cc3)(COS(=O)(=O)c3ccc(C)cc3)C12 (racemic); > 50 µM
CCOC(=O)/C=C/N1c2ncnc(OC)c2N2C(c3ccccc3)OC(C(=O)OCC)(C(=O)OCC)C12 (racemic); > 50 µM

Let us move to another entry and its IC50.
**Q:** // returns reported IC50 for input CCOC(=O)/C=C/N1c2nc(Cl)nc(Cl)c2N2C(c3cccc(C(F)(F)F)c3)OC(C(=O)OCC)(C(=O)OCC)C12 (racemic)
**A:** 10 µM

----------
Assay: Stability in mouse plasma assessed as half life measured upto 24 hrs by HPLC analysis
Format: ADME, cell-free
Readout Kind: half-life (h)
Numbers only here, please. The scale is h.

**Q:** // returns reported half-life for input C=C(C(=O)OC)N1c2nc(Cl)nc(Cl)c2N2C(c3ccccc3F)OC(C(=O)OCC)(C(=O)OCC)C12 (racemic)
**A:** 4.78

----------
System: MCF7
Assay: Antiproliferative activity against human MCF7 cells assessed as inhibition of cell viability incubated for 48 hrs by CCK8 assay
Assay type: functional, cell-based
Conditions: MCF7, 48 h
Readout Kind: IC50 (µM)
Numbers only here, please. The scale is µM.

C=C(C(=O)OC)N1c2nc(Cl)nc(Cl)c2N2C(c3ccccc3Cl)OC(C(=O)OCC)(C(=O)OCC)C12 (racemic); 1.9

**Q:** // returns reported IC50 for input C=C(C(=O)OC)N1c2nc(Cl)nc(Cl)c2N2C(c3ccccc3Br)OC(C(=O)OCC)(C(=O)OCC)C12 (racemic)
**A:** 3.49

**Q:** // returns reported IC50 for input C/C=C/C[C@@H](C)[C@@H](O)[C@H]1C(=O)N[C@@H](CC)C(=O)N(C)CC(=O)N(C)[C@@H](CC(C)C)C(=O)N[C@@H](C(C)C)C(=O)N(C)[C@@H](CC(C)C)C(=O)N[C@@H](C)C(=O)N[C@H](C)C(=O)N(C)[C@@H](CC(C)C)C(=O)N(C)[C@@H](CC(C)C)C(=O)N(C)[C@@H](C(C)C)C(=O)N1C
**A:** 6.12

**Q:** // returns reported IC50 for input C=C(C(=O)OC)N1c2nc(Cl)nc(Cl)c2N2C(c3ccccc3F)OC(C(=O)OCC)(C(=O)OCC)C12 (racemic)
**A:** 1.19

----------
Below, each entry is listed with its recorded IC50.
Tested on: HeLa
Test: Antiproliferative activity against human HeLa cells assessed as inhibition of cell viability incubated for 48 hrs by CCK8 assay
Type: functional, cell-based

**Q:** // returns reported IC50 for input CCOC(=O)/C=C/N1c2nc(Cl)nc(Cl)c2N2C(c3cccc(Br)c3)OC(C(=O)OCC)(C(=O)OCC)C12 (racemic)
**A:** 11.7 µM

**Q:** // returns reported IC50 for input CCCSc1nc(Cl)nc2c1N1C(c3ccccc3)OC(C(=O)OCC)(C(=O)OCC)C1N2/C=C/C(=O)OCC (racemic)
**A:** > 50 µM

**Q:** // returns reported IC50 for input CCOC(=O)C1(C(=O)OCC)OC(c2ccccc2)N2c3c(Cl)nc(Cl)nc3N(/C=C/C(=O)OCc3ccccc3)C21 (racemic)
**A:** > 50 µM

**Q:** // returns reported IC50 for input C/C=C/C[C@@H](C)[C@@H](O)[C@H]1C(=O)N[C@@H](CC)C(=O)N(C)CC(=O)N(C)[C@@H](CC(C)C)C(=O)N[C@@H](C(C)C)C(=O)N(C)[C@@H](CC(C)C)C(=O)N[C@@H](C)C(=O)N[C@H](C)C(=O)N(C)[C@@H](CC(C)C)C(=O)N(C)[C@@H](CC(C)C)C(=O)N(C)[C@@H](C(C)C)C(=O)N1C [CYCLOSPORINE]
**A:** 2.17 µM

**Q:** // returns reported IC50 for input C=C(C(=O)OCC)N1c2nc(Cl)nc(Cl)c2N2C(c3ccccc3F)OC(C(=O)OCC)(C(=O)OCC)C12 (racemic)
**A:** 0.55 µM

**Q:** // returns reported IC50 for input C=C(C(=O)OC)N1c2nc(Cl)nc(Cl)c2N2C(c3ccccc3Cl)OC(C(=O)OCC)(C(=O)OCC)C12 (racemic)
**A:** 0.89 µM
